Parameter solubility: see the listing below.
method_description: Aqueous solubility determination via HPLC calibration curve
Format: physicochemical
cond: water, thermodynamic from solid, aqueous (water), filtered suspension, HPLC; read-out: Solubility

- smi: "CC(C)(O)c1nc2ccc(Cl)cc2cc1N.Cc1ccc(S(=O)(=O)O)cc1"
  solubility: "11 mg/mL"

Task item: I'd like to know its solubility. The molecule in question is CC(C)(O)c1nc2ccc(Cl)cc2cc1N.CS(=O)(=O)O
Reply: > 1500 mg/mL

Task item: I'd like to know its solubility. The molecule in question is CC(C)(O)c1nc2ccc(Cl)cc2cc1N.O=P(O)(O)O
Reply: > 500 mg/mL

Each recorded value in this set is attributed to patent US10414732B2.
